- STUDY SYSTEM: T1, KL1 FRET peptide X-PPVAASSLRN-Z (not fully specified)
- T1 chain: PPVAASSLRN
MEASURED QUANTITY: Relative proteolytic activity

>>> endpoint_value("soluble recombinant human ADAM8, active (processed) form (protein) RYVELYVVVDNAEFQMLGSEAAVRHRVLEVVNHVDKLYQKLNFRVVLVGLEIWNSQDRFHVSPDPSVTLENLLTWQARQRTRRHLHDNVQLITGVDFTGTTVGFARVSAMCSHSSGAVNQDHSKNPVGVACTMAHEMGHNLGMDHDENVQGCRCQERFEAGRCIMAGSIGSSFPRMFSDCSQAYLESFLERPQSVCLANAP")
"***"
>>> endpoint_value("soluble recombinant human MDC-L, active form (protein) VQEHEKYIEYYLVLDNGEFKRYNENQDEIRKRVFEMANYVNMLYKKLNTHVALVGMEIWTDKDKIKITPNASFTLENFSKWRGSVLSRRKRHDIAQLITATELAGTTVGLAFMSTMCSPYSVGVVQDHSDNLLRVAGTMAHEMGHNFGMFHDDYSCKCPSTICVMDKALSFYIPTDFSSCSRLSYDKFFEDKLSNCLFNAP")
"***"
>>> endpoint_value("soluble recombinant human ADAM15, active form (protein) DVVTETKTVELVIVADHSEAQKYRDFQHLLNRTLEVALLLDTFFRPLNVRVALVGLEAWTQRDLVEISPNPAVTLENFLHWRRAHLLPRLPHDSAQLVTGTSFSGPTVGMAIQNSICSPDFSGGVNMDHSTSILGVASSIAHELGHSLGLDHDLPGNSCPCPGPAPAKTCIMEASTDFLPGLNFSNCSRRALEKALLDGMGSCLFERL")
"***"
>>> endpoint_value("recombinant ADAM17 (protein) RADPDPMKNTCKLLVVADHRFYRYMGRGEESTTTNYLIELIDRVDDIYRNTSWDNAGFKGYGIQIEQIRILKSPQEVKPGEKHYNMAKSYPNEEKDAWDVKMLLEQFSFDIAEEASKVCLAHLFTYQDFDMGTLGLAYVGSPRANSHGGVCPKAYYSPVGKKNIYLNSGLTSTKNYGKTILTKEADLVTTHELGHNFGAEHDPDGLAECAPNEDQGGKYVMYPIAVSGDHENNKMFSNCSKQSIYKTIESKAQECFQERSNKV")
"(-)"
